// values below are reported pKd
Experimental system: T1, hen egg lysozyme (Gallus gallus (hen), UniProt P00698)
T1 construct: hen egg lysozyme (lysozyme C), bought from Wako Pure Chemical; also called HEL; source: bought: Wako Pure Chemical (Cat. No. 126-02671), used without further purification
T1 sequence (P00698 19-147): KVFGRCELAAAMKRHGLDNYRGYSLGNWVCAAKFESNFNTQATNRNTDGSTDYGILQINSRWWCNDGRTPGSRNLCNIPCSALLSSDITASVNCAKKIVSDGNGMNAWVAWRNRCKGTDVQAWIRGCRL
Measurement notes: SPR; Biacore T200; HEL immobilised on CM5 chip (200 RU); VHH flowed over; 25 °C; PBS with 0.005% Tween 20; global fit to a 1:1 binding model
Reported conditions: both partners purified
pKd: −log10 of the molar value.
Metric name: pKd

binder="D3-L11 F107A (VHH, as the VHH chain of m2 with the stated change; source: E. coli BL21(DE3), purified (Ni-NTA, SEC)) VHH: DVQLVESGGGSVQAGGSLRLSCAASGSTDSIEYMTWFRQAPGKAREGVAALYTHTGNTYYTDSVKGRFTISQDKAKNMAYLRMDSVKSEDTAIYTCGATRKYVPVRAALDQSSYDYWGQGTQVTVSS" result_value=8.79
binder="D3-L11 H54A (VHH, as the VHH chain of m2 with the stated change; source: E. coli BL21(DE3), purified (Ni-NTA, SEC)) VHH: DVQLVESGGGSVQAGGSLRLSCAASGSTDSIEYMTWFRQAPGKAREGVAALYTATGNTYYTDSVKGRFTISQDKAKNMAYLRMDSVKSEDTAIYTCGATRKYVPVRFALDQSSYDYWGQGTQVTVSS" result_value=8.58
binder="D3-L11 T55A (VHH, as the VHH chain of m2 with the stated change; source: E. coli BL21(DE3), purified (Ni-NTA, SEC)) VHH: DVQLVESGGGSVQAGGSLRLSCAASGSTDSIEYMTWFRQAPGKAREGVAALYTHAGNTYYTDSVKGRFTISQDKAKNMAYLRMDSVKSEDTAIYTCGATRKYVPVRFALDQSSYDYWGQGTQVTVSS" result_value=8.52
binder="D3-L11 P104A (VHH, as the VHH chain of m2 with the stated change; source: E. coli BL21(DE3), purified (Ni-NTA, SEC)) VHH: DVQLVESGGGSVQAGGSLRLSCAASGSTDSIEYMTWFRQAPGKAREGVAALYTHTGNTYYTDSVKGRFTISQDKAKNMAYLRMDSVKSEDTAIYTCGATRKYVAVRFALDQSSYDYWGQGTQVTVSS" result_value=7.89
binder="D3-L11 E32A (VHH, as the VHH chain of m2 with the stated change; source: E. coli BL21(DE3), purified (Ni-NTA, SEC)) VHH: DVQLVESGGGSVQAGGSLRLSCAASGSTDSIAYMTWFRQAPGKAREGVAALYTHTGNTYYTDSVKGRFTISQDKAKNMAYLRMDSVKSEDTAIYTCGATRKYVPVRFALDQSSYDYWGQGTQVTVSS" result_value=8.73
